- Test system: INSR;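 further: KINOMEscan kinase panel screen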
- condition label: concentration: 1 μM, replicates: in singlicate; n = 1
So I've got a bunch of molecules here, and I need their %Inh values.
One number for each entry, in %.

COc1ccccc1-c1ccc2c(NC(=O)C3CC3)n[nH]c2n1 ... 0
O=C(Nc1n[nH]c2cc(-c3cccc(F)c3F)ccc12)C1CC1 ... 41
COc1cccc(NC(=O)NC2CCN(c3ccnc(Nc4ccc(F)cc4)n3)C2)c1 (stereo not drawn) ... 14
CC(C)(C)c1ccc(C(=O)Nc2cn3cc(-c4cccnc4)ccc3n2)cc1 ... 0
COc1ccc(Nc2nccc(-c3cccc(NC(=O)c4cc5cc(F)ccc5[nH]4)c3)n2)cc1 ... 0
O=C(Nc1ccccc1)Nc1cccc(Oc2ccc3nccn3n2)c1 ... 0

Hi! Can you tell me %Inh for each of these molecules?
1. Cc1cccc(-c2cc(Nc3ccncc3)c3ccccc3n2)n1
2. COc1ccc(Nc2nccc(NCCNC(=O)Nc3ccccc3F)n2)cc1

Outgoing:
1: 14; 2: 0

Incoming: Tell me its %Inh on INSR: CCn1c(-c2cccnc2O)nc2cnccc21
Outgoing: 0
